Tested on: CAKI-1 renal
Test: NCI-60 one-dose screen, 48 h
Conditions: 10 µM unless noted
This is part of a sample that, as a whole, favours compounds with a hit. Of some 83,000 tested, about 20% had one in any assay. Activity calls are given as the source filed them. Rule for the calls: active = growth percent below 10; inactive = the rest.
Possible outcomes: y = active, n = inactive

compound | assigned-category
Cn1cc(-c2csc(-c3c[nH]c4ncccc34)n2)c2cc(Br)cnc21 | n
CCn1c2c(c3ccccc31)SC1c3cccn3CCN1C2=S (centres undefined) | n
COc1ccc(OC)c(NC(=O)c2cc3oc4ccccc4c3cc2O)c1 | n
CN(C)c1ccc(/C=C(\C#N)c2nc3ccccc3c(=O)[nH]2)cc1 | n
NNC(=O)NO | n
S=C(Nc1ccc(C2=NCCN2)cc1)Nc1ccc(C2=NCCN2)cc1 | n
COc1ccc(C(=O)Nc2nc(-c3ccc(Cl)cc3)cs2)cc1 | n
COc1ccc(-c2csc(NC(=O)c3cc(O)c(O)c(O)c3)n2)cc1 | n
CSc1nc2c(c(=O)[nH]1)C(c1ccc(Cl)cc1)C1=C(N2)/C(=C/c2ccc(Cl)cc2)CNC1 (centres undefined) | n
C[N+]1(CCC[N+]2(C)C[C@@H]3[C@H](C2)[C@@H]2C=C[C@H]3C2)CCOCC1 (some centres undefined) | n
O=C1/C(=C/c2ccc([N+](=O)[O-])o2)Oc2ccc(Br)cc21 | n
C/C(=C\CCc1ccsc1)CC/C=C(\C)CCCN1CCN(CCO)CC1 | n
Cc1cccc(Cl)c1NC(=O)c1ccc2nc(NC(=O)NC3CC(C)(C)NC(C)(C)C3)sc2c1 | n
CNc1ccc(CSc2ccc(Cl)cc2)cc1 | y
CCN(CC)CCCCNc1c2ccccc2[n+](C)c2c1[nH]c1ccccc12 | n
COc1ccc(/C(=C2\O[C@@H]([C@H](O)CO)[C@H]3OC(C)(C)O[C@@H]23)c2cc(OC)c(OC)c(OC)c2)cc1O | n
Clc1ccc([C@@H]2C[C@@H]3Cc4cc(Br)c5ccccc5c4N2O3)c(Cl)c1 | n
CC(=O)c1cc(C(=O)c2ccc3c(c2)Sc2ccccc2N3)c2c(C)cc(C)cn12 | y
COc1cc(OC)c2cc(C(=O)O)c(=O)oc2c1 | n
O=C(O)c1ccccc1C(=O)OC1CCCC2CCCC21 (centres undefined) | n
CCCCCCCC/C=C/CCCCCCCC1=NC(C)(C)CN1CCO | n
Cc1cc(C(C)(C)C)cc(C)c1CC1=NCCN1 | n
O=C1NCN(c2ccccc2)C12CCN(CCCC(c1ccc(F)cc1)c1ccc(F)cc1)CC2 | n
COc1ccc2c(c1)C(=O)c1c-2c(OCCN(C)C)nc2cc(OC)ccc12 | y
C=C(C[C@@](O)(C(=O)Oc1ccccc1)C(=O)C1CCCCC1)c1ccccc1 | n
CC(C)c1ccc(C(=O)Nc2sc3c(CN(C)C)c(O)ccc3c2C(N)=O)cc1 | n
C/C(=C\CCc1ccsc1)CC/C=C(\C)CCCN1CCC(CO)CC1 | n
O=C1/C(=N/O)CCc2ccccc21 | n
Cc1cc(N2CCOCC2)nc(N2CCOCC2)n1 | n
COc1cc(/C=C2\CCC/C(=C\c3ccc(OCC4CO4)c(OC)c3)C2=O)ccc1OCC1CO1 (centres undefined) | n
Nc1nc(SCC2(CCl)COC2)c2[nH]cnc2n1 | n
COc1cccc(/C=C2\COc3ccc(O)c(O)c3C2=O)c1OC | n
C=CCOc1ccc2c(c1)CC[C@@H]1[C@@H]2CC[C@@]2(C)[C@H]1CC[C@]2(C)O | n
COc1ccc(-c2nn(-c3ccccc3)cc2/C=C2\SC(=S)N(CCc3ccc(O)cc3)C2=O)cc1 | n
ClC1C2CC(c3ccccc32)C1Cl (centres undefined) | n
COC(=O)CCC1=C(CC(=O)OC)C(C)=N/C1=C\c1[nH]c(-c2ccc[nH]2)cc1OC | n
O=C(Nc1ccc(OCc2nnc(-c3ccccc3)o2)c(F)c1)Nc1ccc(Cl)c(C(F)(F)F)c1 | n
OC(Cc1cccnc1)c1ccccc1 (centres undefined) | n
CCCCCCCCCCCCNc1ncnc2[nH]ncc12 | n
O=C1/C(=C/c2ccc([N+](=O)[O-])o2)Oc2ccc(Cl)cc21 | y
CCCC[N+](CCCC)=c1ccc2nc3c(C)cc(N(CC)CC)cc3sc-2c1 | y
CC(=O)n1c2ccccc2c2ccccc21 | n
Cc1ccc(NC(=O)CSc2nnc3n(Cc4ccccc4)c(=O)c4c(C)c(C(N)=O)sc4n23)cc1 | n
CCCCCCCCCCCCCCCCCC1=NC(C)(C)CN1CCO | y

* * *

Test system: MCF7 breast
Assay: NCI-60 one-dose screen, 48 h (100 = growth as untreated, 0 = no growth, -100 = all killed)
Conditions: 10 µM unless noted
The panel holds about 83,000 compounds, 20% with a hit somewhere; the sample as a whole holds those more often.
The class of a record is decided solely by its measured growth; consult small value (below 40%), mid value (40% to below 90%), large value (90% or more)

compound | assayed-system | assigned-category
CC(C)[O-].CC(C)[O-].CN(CCN(C)Cc1cc(F)cc(F)c1[O-])Cc1cc(F)cc(F)c1[O-].[Ti+4] | MCF7 breast | small value
Cc1c(C(N)=O)sc2c1C(=O)N(Cc1ccccc1)C1=NN=C(c3ccc(Cl)cc3)CN12 | MCF7 breast | small value
CCOC(=O)C1=NN(c2ccc(Cl)cc2)C2C3N(c4ccc(Cl)cc4)N=C(C(=O)OCC)N3c3ccccc3N12 (stereo not given) | MCF7 breast | mid value
O=C(Nc1cccc([N+](=O)[O-])c1)c1cccc(C(=O)Nc2cccc([N+](=O)[O-])c2)c1 | MCF7 breast | mid value
CCOC(=O)c1c(C)c(C(=O)OCC)n(C)c1C | MCF7 breast | large value
O=C1CN(CO)C(=O)CN1CO | MCF7 breast | large value
CCCCCCCCSc1ncnc2c1ncn2CO | MCF7 breast | mid value
Cc1cc(C(C)(C)C)cc(C)c1CC1=NCCN1 | MCF7 breast | large value
O=C(Nc1ccc(C2=NCCCN2)cc1)Nc1ccc(C2=NCCCN2)cc1 | MCF7 breast | large value
CO[C@H]1/C=C/O[C@@]2(C)Oc3c(C)c(O)c4c(O)c(c(/C=N/N5C(C)CN(Cc6ccccc6)CC5C)c(O)c4c3C2=O)NC(=O)/C(C)=C\C=C\[C@H](C)[C@H](O)[C@@H](C)[C@@H](O)[C@@H](C)[C@H](OC(C)=O)[C@@H]1C (stereo not given in full) | MCF7 breast | mid value
O=C(Nc1ccc(Oc2ccc(NC(=O)Nc3ccc([N+](=O)[O-])cc3)cc2)cc1)Nc1ccc([N+](=O)[O-])cc1 | MCF7 breast | small value
O=C(Nc1ccc(Cl)cc1)Nc1ccc(Nc2nncc3ccccc23)cc1 | MCF7 breast | small value
CCN1CCN(c2cc(-c3cn[nH]c3-c3cc(C)cc(OC)c3)nc(-c3cccnc3)n2)CC1 | MCF7 breast | mid value
C=C(C)[C@@H]1C/C=C(/C=O)CC[C@@H]2O[C@@]2(C)CC/C=C(\C)CC1 | MCF7 breast | large value
N#Cc1cnc2cc(OC[C@H](O)CO)c(NC(=O)CC3CSSC3)cc2c1Nc1ccc(OCc2cccc(F)c2)c(Cl)c1 | MCF7 breast | small value
CCC1=C(c2ccc(OC)cc2)C(C)Oc2cc(OC(C)=O)ccc21 (stereo not given) | MCF7 breast | mid value
O=c1[nH]c(=O)n(C2CC(O)C(CO)O2)cc1C(F)(F)F (stereo not given) | MCF7 breast | small value
COc1cc2c(-c3nc4cc(Cl)c(F)cc4s3)cc(=O)oc2c(C)c1OC | MCF7 breast | small value

* * *

Test system: SF-268 CNS
Experiment: NCI-60 one-dose screen, 48 h (100 = growth as untreated, 0 = no growth, -100 = all killed)
Conditions: 10 µM unless noted
The panel holds about 83,000 compounds, 20% with a hit somewhere; the sample as a whole holds those more often.
List of growth values.
reported-metric: growth (%)

compound | assayed-system | display-unit | test-value
O=[N+]([O-])c1ccc(N/N=C\c2ccccc2[N+](=O)[O-])nc1 | SF-268 CNS | % | 107
Clc1cccc(Cc2cn3cc(-c4ccccc4)nc3s2)c1 | SF-268 CNS | % | 64.9
COc1cc(C2CC(=O)Nc3c2cc(Br)c2ccccc32)cc(Br)c1OC (stereo not given) | SF-268 CNS | % | 55.4
COc1ccc(C2CC(c3ccc(OC)c(OC)c3)=NN2C(=O)c2cc(OC)c(OC)c(OC)c2)c(OC)c1 (stereo not given) | SF-268 CNS | % | 82
N#Cc1c(N2CCOCC2)nc2sc3cc(Cl)ccc3n2c1=N | SF-268 CNS | % | 94.4

* * *

Test system: SNB-75 CNS
Assay: NCI-60 one-dose screen, 48 h (100 = growth as untreated, 0 = no growth, -100 = all killed)
Conditions: 10 µM unless noted
About 83,000 compounds went through this panel and 20% of them were active in at least one assay; those are over-represented in the sample as a whole.
Kindly return yes if reported growth is no lower than 80%; return no if it is lower.

molecule | assigned-category
COc1cc(/C=C/C(=O)Nc2ccc3c(c2)/C(=C\c2cccn2C)C(=O)N3)cc(OC)c1OC | no
CC1=CC(=O)C(C(C)=Nc2ccccc2Cl)C(=O)O1 (stereo not given) | yes
COc1cc(/C=C/C(=O)c2c(-c3ccc(Cl)cc3)nc3sc(C)nn23)cc(OC)c1OC | no
C[N+]1(CCC[N+]2(C)C[C@@H]3[C@H](C2)[C@@H]2C=C[C@H]3C2)CCOCC1 (stereo not given in full) | yes
Nc1nonc1-c1nc2ccccc2n1CC(=O)Nc1ccc2c(c1)COC2=O | no
C=CC1=C(C(=O)O)N2C(=O)[C@@H](NC(=O)/C(=N\O)c3csc(N)n3)[C@H]2SC1 (stereo in doubt) | yes
Cc1cc(C)n(C(=O)c2nn(-c3ccc(Cl)cc3)cc2O)n1 | no
Cc1c(C(N)=O)sc2ncn(CC(=O)Nc3ccc(Cl)cc3)c(=O)c12 | yes
COc1ccc2[nH]cc(/C=C3/C(=O)Nc4ccc(F)cc43)c2c1 | no
